Source of measurements: ChEMBL document CHEMBL5344418

Tested on: Plasmodium falciparum
assay_name: Antiplasmodial activity against Plasmodium falciparum K1
Assay type: functional, organism-based
recorded_metric: IC50 (nM)
Express the result in nM but write the number alone.

Consider the reported IC50 for these compounds:
**Q:** Reported IC50 for COc1ccc(C(=O)NNc2ccnc3cc(Cl)ccc23)cc1 : what is it?
**A:** 1130

**Q:** Consider next the compound Cc1cc(C(=O)NNc2ccnc3cc(Cl)ccc23)c2ccccc2n1 in the same way.
**A:** 90

Next:
**Q:** Item COc1ccc(NNc2ccnc3cc(Cl)ccc23)cc1 has what recorded IC50?
**A:** 3480

**Q:** Follow-up item: COc1ccc(Nc2ccnc3cc(Cl)ccc23)cc1
**A:** 4870

**Q:** For O=C(NNc1ccnc2cc(Cl)ccc12)c1cc(-c2ccccc2)nc2ccccc12 then?
**A:** 600

* * *

System: Plasmodium falciparum
assay_name: Antiplasmodial activity against Plasmodium falciparum 3D7 assessed as growth inhibition measured after 72 hrs by SYBR green dye based assay
Format: functional, organism-based
experimental_parameters: 3D7, 72 h
recorded_metric: pIC50
Note on pIC50: it is the negative log10 of concentration, concentration in mol/L.

These recorded examples may help you get a feel for the data.
**Q:** Consider the compound shown here: CCN1CCN(CC(Nc2ccnc3cc(Cl)ccc23)n2ccc3ccccc32)CC1 (stereo unspecified) What is its recorded pIC50?
**A:** 5.38

**Q:** Request: CCN1CCN(CC(CC(C)C)Nc2ccnc3cc(Cl)ccc23)CC1 (stereo unspecified)
**A:** 7.24

**Q:** What do we get for CCN1CCN(CC(CCSC)Nc2ccnc3cc(Cl)ccc23)CC1 (stereo unspecified) ?
**A:** 5.58

**Q:** Same lookup for CC(C)CC(CN1CCN(Cc2ccc3c(c2)OCO3)CC1)Nc1ccnc2cc(C(F)(F)F)ccc12 (stereo unspecified) , please.
**A:** 7.65

**Q:** Try this compound next: CC(CN1CCN(c2ccccc2)CC1)Nc1ccnc2cc(Cl)ccc12 (stereo unspecified)
**A:** 6.27

**Q:** Record: CC(C)CC(CN1CCN(Cc2ccccc2)CC1)Nc1ccnc2cc(Cl)ccc12 (stereo unspecified)
**A:** 6.81

---
**Q:** What does the record list as pIC50 for CC(CN1CCN(Cc2ccccc2)CC1)Nc1ccnc2cc(Cl)ccc12 (stereo unspecified) ?
**A:** 6.39

**Q:** Lookup CC(C)CC(CN1CCN(c2ncccn2)CC1)Nc1ccnc2cc(Cl)ccc12 (stereo unspecified)
**A:** 6.34

* * *

# key: entry, value: IC50
System: Plasmodium falciparum
assay_name: Antimalarial activity against chloroquine-sensitive Plasmodium falciparum 3D7 assessed as reduction in parasite growth incubated for 36 hrs by Giemsa staining based microscopic analysis
Format: functional, organism-based
experimental_parameters: 3D7, 36 h
Field: numeric (µM). Do not append units.

**Q:** IC50 for O=C(Cn1cc(COc2ccc(Br)cc2)nn1)NCCNc1ccnc2cc(Cl)ccc12 ?
**A:** 0.04

**Q:** Now consider O=C(Cn1cc(COc2ccc(Cl)cc2)nn1)NCCCNc1ccnc2cc(Cl)ccc12 .
**A:** 90

**Q:** Same question for O=C(Cn1cc(COc2ccc(Br)cc2)nn1)NCCCCCCNc1ccnc2cc(Cl)ccc12 please.
**A:** 0.307

**Q:** Then what about the molecule O=C(Cn1cc(COc2ccc(Cl)cc2)nn1)NCCCCCCNc1ccnc2cc(Cl)ccc12 ?
**A:** 263

**Q:** Again, but for Cc1ccc(OCc2cn(CC(=O)NCCCNc3ccnc4cc(Cl)ccc34)nn2)cc1
**A:** 91.9

**Q:** And for O=C(Cn1cc(COc2ccc(Cl)cc2)nn1)NCCNc1ccnc2cc(Cl)ccc12 ?
**A:** 0.04

Others:
**Q:** Param item = O=C(Cn1cc(COc2ccccc2)nn1)NCCCNc1ccnc2cc(Cl)ccc12 ; retrieve measured IC50.
**A:** 180

**Q:** Try O=C(Cn1cc(COc2ccc(Br)cc2)nn1)NCCCNc1ccnc2cc(Cl)ccc12 next.
**A:** 38.8

**Q:** Lookup Cc1ccc(OCc2cn(CC(=O)NCCCCNc3ccnc4cc(Cl)ccc34)nn2)cc1
**A:** 83.5

**Q:** Note, next up: O=C(Cn1cc(COc2ccc(Cl)cc2)nn1)NCCCCNc1ccnc2cc(Cl)ccc12
**A:** 92.8

* * *

Tested on: Plasmodium falciparum
assay_name: Antiplasmodial activity against Plasmodium falciparum K1 assessed as growth inhibition measured after 72 hrs by SYBR green dye based assay
Assay type: functional, organism-based
experimental_parameters: K1, 72 h
// pIC50 lookup, one value per entry
When answering, recall that pIC50 equals minus log10 of the concentration in mol/L, and write that number alone.

**Q:** Query (compound): Clc1ccc2c(NC(Cc3ccccc3)CN3CCN(Cc4ccc5c(c4)OCO5)CC3)ccnc2c1 (stereo not given) ; field requested: pIC50
**A:** 7.05

**Q:** Can you check CC(C)CC(CN1CCN(Cc2ccc3c(c2)OCO3)CC1)Nc1ccnc2cc(C(F)(F)F)ccc12 (stereo not given) next?
**A:** 7.33

**Q:** Thanks! And Clc1ccc2c(NC(Cc3ccccc3)CN3CCN(c4ccccc4)CC3)ccnc2c1 (stereo not given) ?
**A:** 5.96

**Q:** Now the same for Clc1ccc2c(NCCN3CCN(c4ncccn4)CC3)ccnc2c1
**A:** 6.56

**Q:** Record: CCN1CCN(CC(CC(C)C)Nc2ccnc3cc(C(F)(F)F)ccc23)CC1 (stereo not given)
**A:** 6.10

Here is another compound to look at.
**Q:** # query: pIC50 of entry CC(CN1CCN(Cc2ccccc2)CC1)Nc1ccnc2cc(Cl)ccc12 (stereo not given)
**A:** 7.08

* * *

assay_name: Cytotoxicity against African monkey Vero cells assessed as reduction in cell viability incubated for 72 hrs by MTT assay
Type: toxicity, cell-based
experimental_parameters: chlorocebus sabaeus
Entries annotated with measured CC50 at 72 h
# output: bare number, implied unit µM

**Q:** Which CC50 at 72 h is listed for O=C(Cn1cc(COc2ccc(Cl)cc2)nn1)NCCCCCCNc1ccnc2cc(Cl)ccc12 ?
**A:** 7.41

**Q:** Query O=C(Cn1cc(COc2ccc(Br)cc2)nn1)NCCNc1ccnc2cc(Cl)ccc12 next
**A:** 78.2

**Q:** Request: O=C(Cn1cc(COc2ccc(Br)cc2)nn1)NCCCNc1ccnc2cc(Cl)ccc12
**A:** 75.5

* * *

Listed next: entries and their corresponding IC50.
assay_name: Cytotoxicity against African green monkey Vero cells by MTT assay
Type: toxicity, cell-based
experimental_parameters: African green monkey (Chlorocebus sabaeus)
Express it in µM; write the number only.

Please review the following examples before continuing.
**Q:** Value lookup for IC50; key = CCCCC1(CCCC)c2ccccc2-c2cc(Cl)c(NC(=O)CNCCCNc3ccnc4cc(Cl)ccc34)cc21
**A:** 15.9

**Q:** And for CC1(C)c2ccccc2-c2cc(Cl)c(NC(=O)C(=O)NCCCNc3ccnc4cc(Cl)ccc34)cc21 ?
**A:** 17.7

**Q:** Try the compound O=C(CNCCCNc1ccnc2cc(Cl)ccc12)Nc1cc2c(cc1Cl)-c1ccccc1C2
**A:** 11.2

**Q:** Queued: O=C(NCCCNc1ccnc2cc(Cl)ccc12)C(=O)Nc1cc2c(cc1Cl)-c1ccccc1C2
**A:** 26

**Q:** Next up: CC1(C)c2ccccc2-c2cc(Cl)c(NC(=O)CNCCCNc3ccnc4cc(Cl)ccc34)cc21
**A:** 6.33

Next:
**Q:** Look up IC50 for this compound: O=C(CNCCCNc1ccnc2cc(Cl)ccc12)Nc1cc2c(cc1Cl)-c1ccccc1C21CCCC1
**A:** 12.5

* * *

Tested on: Plasmodium falciparum
assay_name: Antimalarial activity against Plasmodium falciparum W2 assessed as reduction in parasite growth incubated for 48 hrs by LDH assay
Type: functional, organism-based
experimental_parameters: W2, 48 h
Listed here are compounds together with their documented IC50.
Provide the reading as a plain figure in µM.

**Q:** Which IC50 is reported for this compound? N=C(N=C(N)N)SCCCNc1cc(C(F)(F)F)nc2c(C(F)(F)F)cccc12
**A:** 7.21

**Q:** Next: N=C(N=C(N)N)SCCCNc1ccnc2cc(Cl)ccc12
**A:** 2.13

**Q:** Please answer likewise for N=C(N=C(N)N)SCCNc1cc(C(F)(F)F)nc2c(C(F)(F)F)cccc12
**A:** 8.04

* * *

pIC50 values, listed per item
assay_name: Cytotoxicity against Chinese hamster CHO cells assessed as reduction in cell viability by MTT assay
Format: toxicity, cell-based
experimental_parameters: Chinese hamster (Cricetulus griseus)
Value format note: pIC50 is -log10 of concentration (mol/L); just state the number.

**Q:** I am curious: what pIC50 value has been reported for O=C(/C=C/c1ccccc1Cl)c1ccc(S(=O)(=O)NCCNc2cncc3cc(Cl)ccc23)cc1 ?
**A:** 4.45

**Q:** And COc1ccc(/C=C/C(=O)c2ccc(S(=O)(=O)NCCCNc3cncc4cc(Cl)ccc34)cc2)cc1 ?
**A:** 4.36

---
**Q:** // returns reported pIC50 for input Cc1ccc(/C=C/C(=O)c2ccc(S(=O)(=O)NCCNc3cncc4cc(Cl)ccc34)cc2)cc1
**A:** 4.60

**Q:** Do the same for COc1ccc(/C=C/C(=O)c2ccc(S(=O)(=O)NCCCNc3cncc4cc(Cl)ccc34)cc2)cc1OC please
**A:** 4.36

**Q:** Also check O=C(/C=C/c1ccc(F)cc1)c1ccc(S(=O)(=O)NCCNc2cncc3cc(Cl)ccc23)cc1
**A:** 4.84

**Q:** Next compound: O=C(/C=C/c1ccc(Cl)cc1)c1ccc(S(=O)(=O)NCCCNc2cncc3cc(Cl)ccc23)cc1
**A:** 4.39

**Q:** Param item: O=C(/C=C/c1ccc(F)cc1F)c1ccc(S(=O)(=O)NCCCNc2cncc3cc(Cl)ccc23)cc1
**A:** 4.65

**Q:** # repeat for O=C(/C=C/c1ccccc1F)c1ccc(S(=O)(=O)NCCCNc2cncc3cc(Cl)ccc23)cc1
**A:** 4.34

**Q:** Param item: O=C(/C=C/c1c(F)cccc1F)c1ccc(S(=O)(=O)NCCCNc2cncc3cc(Cl)ccc23)cc1
**A:** 4.56
